Cited source for all entries: PubChem BioAssay (NCI)

system: HS 578T breast; test: NCI tumour cell line growth inhibition, 48 h
reported_metric: TGI

{"compound": "CC(=O)OCc1ccc2oc(=O)c(C(=O)Oc3ccccc3)cc2c1", "TGI": "> 100 µM"}
{"compound": "Cc1cccc(NC(=O)c2cccc([N+](=O)[O-])c2O)c1C", "TGI": "> 100 µM"}

# input for lookup
Which TGI is listed for O=C(O)C1CC(O)CN1 (stereo not drawn) ?
> 100 µM

* * *

TGI listing for selected compounds.
test system: M14 melanoma; experiment: NCI tumour cell line growth inhibition, 48 h

{"compound": "O=C(NNC(=S)NC1CCCCC1)c1csc(NC(=S)NC2CCCCC2)n1", "assayed_target": "M14 melanoma", "TGI": "16.1 µM"}
{"compound": "OC(c1cc(C23CC4CC(CC(C4)C2)C3)nc2c(Cl)cc(Cl)cc12)C1CCCCN1 (stereo not given)", "assayed_target": "M14 melanoma", "TGI": "3.13 µM"}

// lookup TGI for CC(=O)O[C@H]1[C@H](OC(=O)CC(C)(O)CC(=O)O)C[C@]2(C)C3=C(CCC2C1(C)C)[C@]1(C)CC[C@H]([C@H]2CC[C@H](C(C)(C)O)OC2O)[C@@]1(C)[C@@H](O)C3 (stereo not given in full)
33.4 µM

Requested read-out: TGI. Entry: CCOC(=O)c1c(N2CCOCC2)[nH]c(=O)c(C(c2ccco2)c2c(O)c(C(=O)OCC)c(N3CCOCC3)[nH]c2=O)c1O
> 100 µM

Please report the recorded TGI for Cc1ccc2c(c1)-c1nc(N)c(C#N)c(-c3ccccc3)c1CCS2(=O)=O .
> 100 µM

If you can, please state the reported TGI value of CC1OC(n2cc(F)c(=O)[nH]c2=O)C=CC1=O (stereo not given) .
34.1 µM

Need TGI, item Nc1nc2c3nc(Nc4ccccc4)sc3nc(=O)n2c2sc(Nc3ccccc3)nc12
> 100 µM

Look at this compound and give its reported TGI. COc1ccc(C2ON(c3cccc(C)n3)CC=C2C)cc1 (stereo not given)
> 100 µM

// query TGI value for entry COc1ccc(OCC(=O)O)c(C(=O)CCC(=O)O)c1
> 10 µM

Please report the recorded TGI for CCCCCCCCCCNC(=O)CCC(NC(=O)c1ccc(N(C)Cc2cnc3nc(N)nc(N)c3n2)cc1)C(=O)NCCCCCCCCCC (stereo not given) .
57.7 µM

// query TGI value for entry Cc1ccnc(NC(NC(=O)c2ccccc2)(C(F)(F)F)C(F)(F)F)c1
> 100 µM

Sample Nc1onc2c1Cc1c(noc1N)-c1ccccc1-2 — what was its TGI?
> 100 µM

Give its TGI value. Item: C=C1C2C[C@@H]3O[C@H]4C[C@H]5O[C@@]6(C[C@@H]7O[C@]8(C[C@H](C)[C@@H]9O[C@@H]%10CC(CO)O[C@@H]%10C[C@@H]9O8)C[C@H](C)[C@@H]7O6)C[C@H]5O[C@H]4[C@H](C)[C@H]3OC(=O)C[C@H]3CC[C@@H]4OC5[C@H]6O[C@]7(CC[C@H]8CC(=C)[C@H](CC[C@@H](C[C@H]1C)O2)O8)CC6O[C@@H]5[C@@H](O7)[C@H]4O3 (stereo not given in full)
> 1 µM

Requested read-out: TGI. Entry: CC(=O)OCC1OC(n2c(-c3ccc(C)cc3)cc(-c3ccccc3)c(C#N)c2=O)C(OC(C)=O)C(OC(C)=O)C1OC(C)=O (stereo not given)
> 100 µM

Report TGI for CN(C)c1nc(Cl)c2c(-c3ccccc3)c(-c3ccccc3)oc2n1 please.
> 100 µM

* * *

Recorded TGI for the following compounds
tested on: BT-549 breast; assay: NCI tumour cell line growth inhibition, 48 h

Use the examples below as a reference point.
{"compound": "NC(N)=Nc1ccc(CC(N)C(=O)O)cc1 (stereo not drawn)", "reported_metric": "TGI", "value_reported": "> 12.5 µM"}
{"compound": "COC(=O)/C=C/c1cc2c(cc1-c1c(C(=O)O)cc(OC)c(OC)c1OC)OCO2", "reported_metric": "TGI", "value_reported": "> 10 µM"}
{"compound": "C#CCOc1cccc(Nc2ncnc3cc(NC(=O)CCl)ccc23)c1", "reported_metric": "TGI", "value_reported": "20.3 µM"}
{"compound": "Cn1c(-c2cccc([N+](=O)[O-])c2)[n+](C)c2ccccc21", "reported_metric": "TGI", "value_reported": "> 100 µM"}
{"compound": "Cc1cc(S(=O)(=O)Nc2nc3ccccc3c(=O)n2N)c(S)cc1Cl", "reported_metric": "TGI", "value_reported": "> 100 µM"}
{"compound": "COc1cc(-c2nc(SCCC(C)C)nc(Nc3ccc(S(N)(=O)=O)cc3)c2C#N)cc(OC)c1OC", "reported_metric": "TGI", "value_reported": "6.3 µM"}
{"compound": "O=c1c(O)c(-c2cc(O)c(O)c(O)c2)oc2cc(O)cc(O)c12", "reported_metric": "TGI", "value_reported": "> 100 µM"}
{"compound": "Cc1cn(CC2=NCC(C)N2)c(=O)[nH]c1=O (stereo not drawn)", "reported_metric": "TGI", "value_reported": "> 100 µM"}

Shift focus to the following entry.
Recorded TGI of CN(C)c1ccc(/C=C/c2cc[n+](C)c(/C=C/c3ccc(N(C)C)cc3)c2)cc1 , please.
1.61 µM

* * *

system: A498 renal; assay: NCI tumour cell line growth inhibition, 48 h
Threshold check on TGI: at or above 50 µM gives 1, strictly below gives -1.

Please tell me: is the compound CC1(C)C2C=CC1C(=O)CC2 (configuration not stated) at or over 50 µM in terms of TGI?
1

hey, is TGI for this one >= 50 µM? CC1=C(C(=O)Nc2ccccc2)C2(CCCCC2)C(C#N)=C(SCC(=O)Nc2ccc(Br)cc2)N1
-1

API: above_or_equal(metric=TGI, cutoff=50 µM) for item O=c1cccccc1[O-].O=c1cccccc1[O-].O=c1cccccc1[O-].[La+3]
1

* * *

system: SW-620 colon; test: NCI tumour cell line growth inhibition, 48 h
reported_metric: TGI

# count of solved cases: 4
{"compound": "Cc1ccc(NC(=O)c2cc(S(=O)(=O)Nc3nc4ncccc4[nH]3)c(SSc3cc(Cl)c(C(=O)Nc4ccc(C)cc4)cc3S(=O)(=O)Nc3nc4ncccc4[nH]3)cc2Cl)cc1", "TGI": "> 100 µM"}
{"compound": "Clc1ccc(C(n2cc(Br)cn2)n2cc(Br)cn2)cc1", "TGI": "34.6 µM"}
{"compound": "O=c1c(O)c(-c2cc(O)c(O)c(O)c2)oc2cc(O)cc(O)c12", "TGI": "36 µM"}
{"compound": "CCOC(=O)NC(Nc1ccc(C(=O)OCC)cc1)(C(F)(F)F)C(F)(F)F", "TGI": "> 100 µM"}

What value of measured TGI is listed for COC(=O)CC[C@H](Cc1ccccc1)NC(=O)c1csc([C@@H](C[C@H](C(C)C)N(C)C(=O)[C@@H](NC(=O)[C@H]2CCCCN2C)C(C)C)OC(C)=O)n1 ?
> 25 µM

Look up TGI for this compound: CSc1nc(SC)c2c(CO)c(Br)n(Cc3ccccc3)c2n1
> 100 µM

Endpoint output: TGI of CN1C(=O)C2C(C1=O)C1(O)c3ccccc3C2(N)c2ccccc21 (stereo unspecified) . Value?
> 100 µM

I would be grateful if you could share the reported TGI for COc1ccc2nc(-c3ccc(O)cc3)sc2c1 .
44.5 µM

Consider the compound COC(=O)Nc1nc2ccc(Br)cc2[nH]1 and give its measured TGI.
> 100 µM

Look at this compound and give its reported TGI. COC(=O)[C@@H](C)C[C@H](Cc1ccccc1)NC(=O)c1csc([C@@H](C[C@H](C(C)C)N(C)C(=O)[C@@H](NC(=O)[C@H]2CCCCN2C)C2CC2)OC(C)=O)n1
> 16.5 µM

Recorded TGI of Cn1cc2ccccc2c1-c1nc(F)nc(OCC(=O)[C@H]2CCC3[C@@H]4CCC5=CC(=O)CC[C@]5(C)C4[C@@H](O)C[C@@]32C)n1 (stereo partly specified) , please.
33.4 µM

What does the data say about its TGI? Entry: O=C1C(=O)c2cccnc2-c2ncccc21
1.12 µM

Any idea what TGI was measured for O=C(c1ccccc1)c1cn(/N=C\c2ccccc2)c(=O)nc1-c1ccccc1 ?
> 100 µM

// returns reported TGI for input C=C1C(=O)O[C@H]2[C@H]1CC/C(Cn1cc(-c3ccccc3C(F)(F)F)nn1)=C\CC[C@@]1(C)O[C@@H]21
3.33 µM

* * *

system: NCI-H226 lung; assay: NCI tumour cell line growth inhibition, 48 h; in the data active = GI50 below about 0.43 µM; inactive = the rest
Pick one and only one: active, inactive

Reference set (3 entries):
{"molecule": "Cc1cc(N2CCOCC2)cc2[nH]c(-c3c(NC[C@@H](O)c4cccc(Cl)c4)cc[nH]c3=O)nc12", "class_label": "active"}
{"molecule": "COc1cc(C2CC(c3ccc(Nc4ccnc5cc(Cl)ccc45)cc3)=NN2c2ccc(Cl)cc2)cc(OC)c1OC (centres undefined)", "class_label": "inactive"}
{"molecule": "O=c1c(-c2ccccc2)coc2cc(OC/C(=N/O)c3ccccc3)ccc12", "class_label": "inactive"}

Below: the item to evaluate.
// return assay outcome for Cc1cnc(C(=O)Nc2nc3ccc(S(=O)(=O)Nc4ccc(C5(C(F)(F)F)CC5)cc4)cc3[nH]2)cn1
inactive
